test system: NCI-H23; test: NCI tumour cell line growth inhibition, 48 h
Activity calls are given as the source filed them. No stated cut-off is given here; in the data, active = GI50 up to about 1.1 µM and inactive = higher.
Classes used: 1 (yes) = active, 0 (no) = inactive

{"COMPOUND": "N#CC1(C#N)C2(c3ccccc3)OC(c3ccccc3)(c3cc4ccccc4cc32)C1(C#N)C#N", "CLASS_NAME": "0 (no)"}
{"COMPOUND": "CC(Br)C(=O)Nc1ccc(C(=O)O)c(O)c1 (stereo unspecified)", "CLASS_NAME": "0 (no)"}
{"COMPOUND": "O=C(O)C1=NN(c2ccc(S(=O)(=O)O)cc2)C2(C1)SCC(=O)N2c1nc2ccccc2s1 (stereo unspecified)", "CLASS_NAME": "0 (no)"}
{"COMPOUND": "CC(O)C1(CNc2cc(Cl)nc(N)n2)CC(CCc2ccccc2)C1 (stereo unspecified)", "CLASS_NAME": "0 (no)"}
{"COMPOUND": "COc1cc(NS(=O)(=O)c2ccc(C)cc2)c2nccnc2c1", "CLASS_NAME": "0 (no)"}
{"COMPOUND": "COc1ccc([N+](=O)[O-])c2c(NCCCN(C)C)c(C)c(C)nc12", "CLASS_NAME": "0 (no)"}
{"COMPOUND": "CNC(=O)CN(CC(=O)NC)C(=O)NC", "CLASS_NAME": "0 (no)"}
{"COMPOUND": "O=C(O)CCc1nc2ccccc2[nH]1", "CLASS_NAME": "0 (no)"}
{"COMPOUND": "CC1CC(N2CCOCC2)=Nc2ccccc2N1Cc1ccccc1 (stereo unspecified)", "CLASS_NAME": "0 (no)"}
{"COMPOUND": "O=C(O)/C=c1/c2ccccc2n2nc3ccccc3c12", "CLASS_NAME": "0 (no)"}
{"COMPOUND": "Cc1cc(C)n(-c2nc(C)c(CCO)c(=O)[nH]2)n1", "CLASS_NAME": "0 (no)"}
{"COMPOUND": "C[C@H](CCc1nc(C#N)c(N)o1)[C@H]1CC[C@H]2[C@@H]3[C@@H](O)CC4C[C@@H](O)CC[C@]4(C)[C@H]3C[C@@H](O)[C@]12C (stereo partly specified)", "CLASS_NAME": "0 (no)"}
{"COMPOUND": "CCCC(=O)NC1CCc2cc(OC)c(OC)c(OC)c2-c2ccc(OC)c(=O)cc21 (stereo unspecified)", "CLASS_NAME": "1 (yes)"}
{"COMPOUND": "c1ccc(CSC2(SCc3ccccc3)CCCCC2)cc1", "CLASS_NAME": "0 (no)"}
{"COMPOUND": "CN(C)c1ccc(C(C=C2c3ccccc3Sc3ccccc32)=C(C#N)C#N)cc1", "CLASS_NAME": "0 (no)"}
{"COMPOUND": "CC12CC(=O)C3C(CCC4=CC(=O)CCC43C)C1CC=C2CC(=O)O (stereo unspecified)", "CLASS_NAME": "0 (no)"}
{"COMPOUND": "O=C1CCC(=O)N1CNc1ccc2c(c1)Sc1ccccc1O2", "CLASS_NAME": "0 (no)"}
{"COMPOUND": "N#Cc1c(-c2ccco2)cc(-c2ccccc2)nc1O", "CLASS_NAME": "0 (no)"}
{"COMPOUND": "CCC12C=CCN3CC[C@]4(C(=C(C(=O)OC)[C@@H]1Nc1ccn(C5OC(COC(C)=O)C(OC(C)=O)C5OC(C)=O)c(=O)n1)Nc1ccccc14)C32 (stereo partly specified)", "CLASS_NAME": "0 (no)"}
{"COMPOUND": "O=C(C/C(=N/O)C(F)(F)F)c1cccs1", "CLASS_NAME": "0 (no)"}
{"COMPOUND": "N#CC(/C(=N/NC(=O)C(=O)NN)C(=O)NC12CC3CC(CC(C3)C1)C2)c1ccccc1 (stereo unspecified)", "CLASS_NAME": "0 (no)"}
